Taken from patent US9949945B2.

system under test: B/Perth wt (B/Perth/211/01) NA (Influenza B virus)
Sequence (Q3S340 1-466): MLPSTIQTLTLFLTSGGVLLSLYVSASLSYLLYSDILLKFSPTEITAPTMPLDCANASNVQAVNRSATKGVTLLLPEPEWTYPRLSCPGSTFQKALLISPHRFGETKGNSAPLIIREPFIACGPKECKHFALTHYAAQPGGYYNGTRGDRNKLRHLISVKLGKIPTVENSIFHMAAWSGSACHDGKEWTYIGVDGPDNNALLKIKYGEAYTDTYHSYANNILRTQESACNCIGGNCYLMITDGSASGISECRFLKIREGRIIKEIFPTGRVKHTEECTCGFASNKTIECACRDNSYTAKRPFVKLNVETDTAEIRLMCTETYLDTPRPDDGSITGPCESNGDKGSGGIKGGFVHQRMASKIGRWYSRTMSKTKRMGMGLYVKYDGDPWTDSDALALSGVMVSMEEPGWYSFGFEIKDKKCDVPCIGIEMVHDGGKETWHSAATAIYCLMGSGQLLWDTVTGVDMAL
Assay type: biochemical
experimental conditions: read-out: IC50 B/Perth wt
Could you please report measured IC50 for the items listed next?
Provide a numeric answer, followed by its unit.

Inquiry: Give its IC50 value. Item: CC(=O)N[C@@H]1C(NC(=N)N)C(F)[C@](F)(C(=O)O)OC1[C@H](O)[C@H](O)CO (some centres unmarked)
Reply text: 54 nM

Inquiry: Give its IC50 value. Item: CC(=O)NC1C(NC(=N)N)C(F)C(F)(C(=O)O)OC1[C@H](O)[C@H](O)CO (stereo in doubt)
Reply text: 4.5 nM

====

value kind: t1/2 (inac)

Inquiry: Quick check: t1/2 (inac) on Brisbane H1N1 (A/Brisbane/59/07) neuraminidase (Influenza A virus), item CC(=O)NC1C(N)C(F)C(F)(C(=O)O)OC1[C@H](O)[C@H](O)CO (stereo in doubt) ?
Reply text: 0.9 0.2 0.4 0.8 — min

Inquiry: Quick check: t1/2 (inac) on Brisbane H1N1 (A/Brisbane/59/07) neuraminidase (Influenza A virus), item CC(=O)N[C@@H]1C(NC(=N)N)C(F)[C@](F)(C(=O)O)OC1[C@H](O)[C@H](O)CO (stereo partly shown) ?
Reply text: 7.4 9.2 20.9 6.8 20.2 min

Inquiry: Quick check: t1/2 (inac) on Brisbane H1N1 (A/Brisbane/59/07) neuraminidase (Influenza A virus), item CC(=O)NC1C(NC(=N)N)C(F)C(F)(C(=O)O)OC1[C@H](O)[C@H](O)CO (stereo in doubt) ?
Reply text: 0.3 0.5 0.9 0.5 0.8 min

Inquiry: Quick check: t1/2 (inac) on Brisbane H1N1 (A/Brisbane/59/07) neuraminidase (Influenza A virus), item CC(=O)N[C@@H]1C(N)C(F)[C@](F)(C(=O)O)OC1[C@H](O)[C@H](O)CO (stereo partly shown) ?
Reply text: 2.1 2.5 1.7 4.0 20.8 min

====

Could you please report measured IC50 for the items listed next?
Tested on: A/Fukui H3N2
protocol summary: microbe, parasite or virus in culture
Assay type: cell-based
experimental conditions: Influenza A virus, H3N2, MDCK, read-out: IC50 in the plaque size reduction assay, A/Fukui H3N2
Write it as a number; the unit nM goes unstated.

Inquiry: Give its IC50 value. Item: CC(=O)NC1C(N)C(F)C(F)(C(=O)O)OC1[C@H](O)[C@H](O)CO (stereo in doubt)
Reply text: 1000

Inquiry: Give its IC50 value. Item: CC(=O)N[C@@H]1C(NC(=N)N)C(F)[C@](F)(C(=O)O)OC1[C@H](O)[C@H](O)CO (some centres unmarked)
Reply text: 100

Inquiry: Give its IC50 value. Item: CC(=O)NC1C(NC(=N)N)C(F)C(F)(C(=O)O)OC1[C@H](O)[C@H](O)CO (stereo in doubt)
Reply text: 10

Inquiry: Give its IC50 value. Item: CC(=O)N[C@H]1C([C@H](O)[C@H](O)CO)O[C@@](F)(C(=O)O)C(F)[C@H]1O (some centres unmarked)
Reply text: 100000

Inquiry: Give its IC50 value. Item: CC(=O)N[C@@H]1C(N)C(F)[C@](F)(C(=O)O)OC1[C@H](O)[C@H](O)CO (some centres unmarked)
Reply text: 1000

====

system under test: B/Perth wt (B/Perth/211/01) NA (Influenza B virus)
Type: biochemical
experimental conditions: read-out: IC50 in the enzyme inhibition assay, B/Perth
Param label: returns T when IC50 < 0.005 µM, returns F otherwise, including exact equality.

Inquiry: Record CC(=O)N[C@H]1C([C@H](O)[C@H](O)CO)O[C@@](F)(C(=O)O)C(F)[C@H]1O (some centres unmarked) : is its IC50 strictly below 0.005 µM?
Reply text: F

Inquiry: Record CC(=O)N[C@@H]1C(NC(=N)N)C(F)[C@](F)(C(=O)O)OC1[C@H](O)[C@H](O)CO (some centres unmarked) : is its IC50 strictly below 0.005 µM?
Reply text: F

Inquiry: Record CC(=O)NC1C(N)C(F)C(F)(C(=O)O)OC1[C@H](O)[C@H](O)CO (stereo in doubt) : is its IC50 strictly below 0.005 µM?
Reply text: F

Inquiry: Record CC(=O)NC1C(NC(=N)N)C(F)C(F)(C(=O)O)OC1[C@H](O)[C@H](O)CO (stereo in doubt) : is its IC50 strictly below 0.005 µM?
Reply text: T

Inquiry: Record CC(=O)N[C@@H]1C(N)C(F)[C@](F)(C(=O)O)OC1[C@H](O)[C@H](O)CO (some centres unmarked) : is its IC50 strictly below 0.005 µM?
Reply text: F

====

Could you please report measured pKi for the items listed next?
system under test: Hong Kong H3N2 (A/HongKong/01/68) neuraminidase (Influenza A virus, UniProt Q91MA2)
Sequence (Q91MA2 whole entry, looked up): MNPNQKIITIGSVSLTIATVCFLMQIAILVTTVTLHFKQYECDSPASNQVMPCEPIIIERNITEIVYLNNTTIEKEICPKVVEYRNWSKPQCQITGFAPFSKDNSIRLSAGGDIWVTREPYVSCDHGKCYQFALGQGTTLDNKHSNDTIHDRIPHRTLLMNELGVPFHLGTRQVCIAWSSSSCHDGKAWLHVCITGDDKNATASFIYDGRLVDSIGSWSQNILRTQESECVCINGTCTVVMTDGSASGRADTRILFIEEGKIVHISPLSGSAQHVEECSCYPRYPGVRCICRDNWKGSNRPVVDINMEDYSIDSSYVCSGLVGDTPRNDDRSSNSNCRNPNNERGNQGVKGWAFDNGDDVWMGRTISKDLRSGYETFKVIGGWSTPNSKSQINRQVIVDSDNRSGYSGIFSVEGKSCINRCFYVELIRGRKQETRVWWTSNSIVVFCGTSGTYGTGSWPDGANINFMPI
protocol summary: biochemical
Just so you know, pKi here is -log10 of the concentration in molar units; reply with that number alone.

Inquiry: Give its pKi value. Item: CC(=O)N[C@@H]1C(NC(=N)N)C(F)[C@](F)(C(=O)O)OC1[C@H](O)[C@H](O)CO (stereo partly drawn)
Reply text: 7.15

Inquiry: Give its pKi value. Item: CC(=O)NC1C(NC(=N)N)C(F)C(F)(C(=O)O)OC1[C@H](O)[C@H](O)CO (stereo in doubt)
Reply text: 6.82

Inquiry: Give its pKi value. Item: CC(=O)N[C@@H]1C(N)C(F)[C@](F)(C(=O)O)OC1[C@H](O)[C@H](O)CO (stereo partly drawn)
Reply text: 6.62

====

Could you please report measured t1/2 (reac) for the items listed next?
system under test: California H1N1 (A/California/07/09) neuraminidase (Influenza A virus, UniProt C3W6G3)

Inquiry: Give its t1/2 (reac) value. Item: CC(=O)NC1C(N)C(F)C(F)(C(=O)O)OC1[C@H](O)[C@H](O)CO (stereo in doubt) [FeqAmDFSA]
Reply text: 256 117 46 49 153 min

Inquiry: Give its t1/2 (reac) value. Item: CC(=O)NC1C(NC(=N)N)C(F)C(F)(C(=O)O)OC1[C@H](O)[C@H](O)CO (stereo in doubt) [FeqGuDFSA]
Reply text: 1380 460 690 363 1380 min

Inquiry: Give its t1/2 (reac) value. Item: CC(=O)N[C@@H]1C(N)C(F)[C@](F)(C(=O)O)OC1[C@H](O)[C@H](O)CO (stereo partly shown) [FaxAmDFSA]
Reply text: 6900 3450 6900 2300 >6900 min

Inquiry: Give its t1/2 (reac) value. Item: CC(=O)N[C@@H]1C(NC(=N)N)C(F)[C@](F)(C(=O)O)OC1[C@H](O)[C@H](O)CO (stereo partly shown) [FaxGuDFSA]
Reply text: >6900 >6900 >6900 >6900 >6900 min
